Reference source for all entries: patent US20220298138A1

TARGET ENTITY: Human Factor XIIa (Homo sapiens, UniProt P00748)
Construct: purchased Enzyme Research Laboratories
Sequence (P00748 373-615 limits assumed): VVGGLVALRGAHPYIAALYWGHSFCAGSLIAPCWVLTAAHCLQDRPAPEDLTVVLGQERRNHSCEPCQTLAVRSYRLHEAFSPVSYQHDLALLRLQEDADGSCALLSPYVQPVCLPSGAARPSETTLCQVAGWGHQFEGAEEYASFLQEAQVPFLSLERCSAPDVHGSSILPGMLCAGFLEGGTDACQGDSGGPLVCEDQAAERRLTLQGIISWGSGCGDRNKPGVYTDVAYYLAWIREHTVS
ASSAY SUMMARY: Factor XIIa inhibitory activity in vitro (fluorogenic substrate H-DPro-Phe-Arg-AFC)
Assay type: biochemical
STUDY CONDITIONS: 25° C., class symbols, read-out: Human FXIIa IC50
MEASUREMENT LABEL: IC50

Consider the following illustrative entries.
[
  {
    "STRUCTURE AS SMILES": "N[C@H](CCCCN1CCOCC1)C(=O)N1CC[C@H]1C(=O)NCc1cnc2[nH]cc(Cl)c2c1",
    "TARGET ENTITY": "Human Factor XIIa (Homo sapiens, UniProt P00748)",
    "IC50": "0.28 to 1 µM"
  },
  {
    "STRUCTURE AS SMILES": "N[C@H](CCCCO)C(=O)N1CC[C@H]1C(=O)NCc1ccc2[nH]cc(Cl)c2c1",
    "TARGET ENTITY": "Human Factor XIIa (Homo sapiens, UniProt P00748)",
    "IC50": "10 to 40 µM"
  }
]

Consider the additional compound presented here.
IN: # lookup: IC50 of `Nc1nccc2cc(CNC(=O)[C@H](Cc3ccc(F)c(F)c3)NC(=O)CN3CCCC3)ccc12`
OUT: 1 to 3 µM
